# Tested on: anaesthetised dog
# test-details: Cardiotonic activity in the dog (haemodynamics)
# Type: in vivo, dog (male Beagle)
# condition-set: i.v., 0.1 mg/kg
// reported H.R. for each item listed

The following molecules have reported results that may help.
molecule	target-system	H.R.
CC1SC(=O)NN=C1c1ccc2c(c1)C(=NO)C(=O)N2 (centres unmarked)	anaesthetised dog	+13%
CC1SC(=O)NN=C1c1ccc2c(c1)C(=NNc1ccccc1)C(=O)N2 (centres unmarked)	anaesthetised dog	+8 ± 1%
CON=C1C(=O)Nc2ccc(C3=NNC(=O)SC3C)cc21 (centres unmarked)	anaesthetised dog	+13 ± 8%

The recorded H.R. for entry CC1SC(=O)NN=C1c1ccc2c(c1)C(=NNc1ccccc1C(F)(F)F)C(=O)N2 (centres unmarked) equals +39 ± 6%

Data point: COC(=S)NN=C1C(=O)Nc2ccc(C3=NNC(=O)SC3C)cc21 (centres unmarked) ; H.R. = +28 ± 6%
